Recorded half-life by entry
system: human liver microsomes, metabolic stability half-life; experiment: NCATS Human Liver Microsomal (HLM) Stability Profiling; settings: higher = more stable; screened at 1 µM (by protocol)
# unit: min | format: bare number

>>> df
                                item_smiles     metric  scale_unit  value_reported
0  O=c1[nH]c2cccc(N3CCN(Cc4ccc(-c5ccccc5)cc4)CC3)c2o1  half-life         min            31.7
1  COc1ccc(CN2CCN(C(c3ccc(F)cc3)c3ccc(F)cc3)CC2)c(OC)c1OC  half-life         min            13.1
2              c1ccc(-c2csc(N3CCOCC3)n2)cc1  half-life         min            3.95

# context switch: different molecule, same half-life
In plain terms, Cn1cnc2c1c(=O)[nH]c(=O)n2C has a documented half-life of 60.4

From: PubChem BioAssay AID1963597
